measured_on: T1, PDZD2_3, O15018
T1 sequence (O15018 581-682, limits assumed, looked up): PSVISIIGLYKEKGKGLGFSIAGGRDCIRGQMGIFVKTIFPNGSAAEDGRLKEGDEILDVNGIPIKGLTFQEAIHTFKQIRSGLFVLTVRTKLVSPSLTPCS
method_summary: holdup assay
Design: key: below the threshold = too weak to quantify, mostly under pKd 3.1 to 4
stated_conditions: plain residues with an end cap or a label only (N-terminal biotin on a linker: ttds)
reported_property: pKd

{"columns": ["binder", "reported_property", "result"],
 "data": [
  ["SSRTRRETQL [HPV16-E6, P03126]", "pKd", "below the threshold"],
  ["QSARYRDTEL [TJP2, Q9UDY2]", "pKd", "below the threshold"],
  ["PKTPPTDTSV [KIR3DL3, Q8N743]", "pKd", 4.08],
  ["SRPQRTQTQV [HPV67-E6, A4U7F2]", "pKd", "below the threshold"],
  ["RSLEEEESQL [GRASP, Q7Z6J2]", "pKd", "below the threshold"],
  ["STLTIFETAL [ABCC4, O15439]", "pKd", 4.32],
  ["SVWLRKETRV [CYSLTR2, Q9NS75]", "pKd", "below the threshold"]
]}
